meta.source: ChEMBL document CHEMBL4680133

Experiment: Genotoxicity in mouse RAW264.7 cells assessed as survival at 4270 uM measured after 24 hrs by micronucleus test (reference value: 100%)
Format: toxicity, cell-based
Conditions: read-out: Survival
Property name: viability at 24 h, 4270 µM (%)
Output spec: scalar in %, unitless text.

// query Please give the measured viability at 24 h, 4270 µM for this compound: `Cn1cnc([N+](=O)[O-])c1-n1cc(C2CC2)nn1`
// result 94

* * *

Assay: Genotoxicity in human HepG2 assessed as survival at 188 uM measured after 24 hrs by micronucleus test (reference value: 100%)
Format: toxicity, cell-based
Details: HepG2 cells, read-out: Survival
Property name: viability at 24 h, 188 µM
A complete answer gives the number and then names the unit.

// query Please give the measured viability at 24 h, 188 µM for this molecule: `CCOC(=O)c1cn(-c2c([N+](=O)[O-])ncn2C)nn1`
// result 99%

* * *

Experiment: Mutagenicity in Salmonella typhimurium TA100 assessed as revertant/ug measured after 20 mins in presence of S9 fraction by microsome assay
Type: toxicity, subcellular
Details: salmonella enterica subsp. enterica serovar typhimurium, s9, 20 min
Below: a set of entries, each annotated with reported Activity.
Output spec: scalar in revertants/µg, unitless text.

Recorded results for 3 compounds are shown here.
1. Cn1cnc([N+](=O)[O-])c1-n1cc(C2CC2)nn1; 0.278
2. CCCCCc1ccc(-c2cn(-c3c([N+](=O)[O-])ncn3C)nn2)cc1; 2.46
3. CCOC(=O)c1cn(-c2c([N+](=O)[O-])ncn2C)nn1; 3.36

Now for a further compound.
// query Please give the measured Activity for this compound: `Cn1cnc([N+](=O)[O-])c1-n1cccn1`
// result 35.5

* * *

Experiment: Genotoxicity in mouse RAW264.7 cells assessed as survival at 3500 uM measured after 24 hrs by micronucleus test (reference value: 100%)
Format: toxicity, cell-based
Details: read-out: Survival
Property name: viability at 24 h, 3500 µM (%)
Output spec: scalar in %, unitless text.

// query Please give the measured viability at 24 h, 3500 µM for this compound: `CCCCCc1ccc(-c2cn(-c3c([N+](=O)[O-])ncn3C)nn2)cc1`
// result 71

* * *

Experiment: Genotoxicity in human HepG2 assessed as survival at 3760 uM measured after 24 hrs by micronucleus test (reference value: 100%)
Format: toxicity, cell-based
Settings: HepG2 cells, read-out: Survival
Property name: viability at 24 h, 3760 µM
A complete answer gives the number and then names the unit.

// query Please give the measured viability at 24 h, 3760 µM for this compound: `CCOC(=O)c1cn(-c2c([N+](=O)[O-])ncn2C)nn1`
// result 90%

* * *

Test: Genotoxicity in mouse RAW264.7 cells assessed as survival at 350 uM measured after 24 hrs by micronucleus test (reference value: 100%)
Assay type: toxicity, cell-based
Conditions: read-out: Survival
Property name: viability at 24 h, 350 µM (%)
Output spec: scalar in %, unitless text.

// query Please give the measured viability at 24 h, 350 µM for this compound: `CCCCCc1ccc(-c2cn(-c3c([N+](=O)[O-])ncn3C)nn2)cc1`
// result 99

* * *

Experiment: Genotoxicity in human HepG2 assessed as survival at 175 uM measured after 24 hrs by micronucleus test (reference value: 100%)
Type: toxicity, cell-based
Conditions: HepG2 cells, read-out: Survival
Property name: viability at 24 h, 175 µM (%)
Output spec: scalar in %, unitless text.

// query Please give the measured viability at 24 h, 175 µM for this compound: `CCCCCc1ccc(-c2cn(-c3c([N+](=O)[O-])ncn3C)nn2)cc1`
// result 99

* * *

Test: Genotoxicity in mouse RAW264.7 cells assessed as survival at 376 uM measured after 24 hrs by micronucleus test (reference value: 100%)
Format: toxicity, cell-based
Details: read-out: Survival
Property name: viability at 24 h, 376 µM (%)
Output spec: scalar in %, unitless text.

// query Please give the measured viability at 24 h, 376 µM for this compound: `CCOC(=O)c1cn(-c2c([N+](=O)[O-])ncn2C)nn1`
// result 99

* * *

Test: Mutagenicity in Salmonella typhimurium TA100 assessed as revertant/ug measured after 20 mins in absence of S9 fraction by microsome assay
Type: toxicity
Settings: salmonella enterica subsp. enterica serovar typhimurium, microsomes
Below: a set of entries, each annotated with reported Activity.
Output spec: scalar in revertants/µg, unitless text.

Recorded results for 3 compounds are shown here.
1) Cn1cnc([N+](=O)[O-])c1-n1cccn1; 65.5
2) Cn1cnc([N+](=O)[O-])c1-n1cc(C2CC2)nn1; 2.42
3) CCCCCc1ccc(-c2cn(-c3c([N+](=O)[O-])ncn3C)nn2)cc1; 2.96

Now for a further compound.
// query Please give the measured Activity for this compound: `CCOC(=O)c1cn(-c2c([N+](=O)[O-])ncn2C)nn1`
// result 3.54

* * *

Assay: Genotoxicity in human HepG2 assessed as survival at 376 uM measured after 24 hrs by micronucleus test (reference value: 100%)
Assay type: toxicity, cell-based
Conditions: HepG2 cells, read-out: Survival
Property name: viability at 24 h, 376 µM (%)
Output spec: scalar in %, unitless text.

// query Please give the measured viability at 24 h, 376 µM for this compound: `CCOC(=O)c1cn(-c2c([N+](=O)[O-])ncn2C)nn1`
// result 99

* * *

Assay: Genotoxicity in human HepG2 assessed as survival at 4270 uM measured after 24 hrs by micronucleus test (reference value: 100%)
Assay type: toxicity, cell-based
Settings: HepG2 cells, read-out: Survival
Property name: viability at 24 h, 4270 µM (%)
Output spec: scalar in %, unitless text.

// query Please give the measured viability at 24 h, 4270 µM for this molecule: `Cn1cnc([N+](=O)[O-])c1-n1cc(C2CC2)nn1`
// result 91

* * *

Assay: Genotoxicity in human HepG2 assessed as survival at 350 uM measured after 24 hrs by micronucleus test (reference value: 100%)
Assay type: toxicity, cell-based
Settings: HepG2 cells, read-out: Survival
Property name: viability at 24 h, 350 µM (%)
Output spec: scalar in %, unitless text.

// query Please give the measured viability at 24 h, 350 µM for this compound: `CCCCCc1ccc(-c2cn(-c3c([N+](=O)[O-])ncn3C)nn2)cc1`
// result 95

* * *

Test: Selectivity index, ratio of GI50 for human HepG2 cells assessed as reduction in cell viability measured after 24 hrs by WST1 assay to IC50 for antitrypanosomal activity against Trypanosoma cruzi Y axenic amastigotes infected in African green monkey Vero cells
Type: toxicity
Conditions: read-out: Selectivity Index
Below: a set of entries, each annotated with reported selectivity ratio at 24 h.

Recorded results for 3 molecules are shown here.
1. O=C(Cn1ccnc1[N+](=O)[O-])NCc1ccccc1 [BENZNIDAZOLE]; > 57
2. CCCCCc1ccc(-c2cn(-c3c([N+](=O)[O-])ncn3C)nn2)cc1; > 2.46
3. Cn1cnc([N+](=O)[O-])c1-n1cc(C2CC2)nn1; > 35.5

// query Please give the measured selectivity ratio at 24 h for this molecule: `CCOC(=O)c1cn(-c2c([N+](=O)[O-])ncn2C)nn1`
// result > 0.95

* * *

Assay: Genotoxicity in mouse RAW264.7 cells assessed as survival at 175 uM measured after 24 hrs by micronucleus test (reference value: 100%)
Format: toxicity, cell-based
Details: read-out: Survival
Property name: viability at 24 h, 175 µM (%)
Output spec: scalar in %, unitless text.

// query Please give the measured viability at 24 h, 175 µM for this molecule: `CCCCCc1ccc(-c2cn(-c3c([N+](=O)[O-])ncn3C)nn2)cc1`
// result 99

* * *

Assay: Genotoxicity in mouse RAW264.7 cells assessed as survival at 1750 uM measured after 24 hrs by micronucleus test (reference value: 100%)
Type: toxicity, cell-based
Settings: read-out: Survival
Property name: viability at 24 h, 1750 µM
A complete answer gives the number and then names the unit.

// query Please give the measured viability at 24 h, 1750 µM for this compound: `CCCCCc1ccc(-c2cn(-c3c([N+](=O)[O-])ncn3C)nn2)cc1`
// result 85%

* * *

Experiment: Genotoxicity in mouse RAW264.7 cells assessed as survival at 213 uM measured after 24 hrs by micronucleus test (reference value: 100%)
Assay type: toxicity, cell-based
Conditions: read-out: Survival
Property name: viability at 24 h, 213 µM (%)
Output spec: scalar in %, unitless text.

// query Please give the measured viability at 24 h, 213 µM for this compound: `Cn1cnc([N+](=O)[O-])c1-n1cc(C2CC2)nn1`
// result 99

* * *

Assay: Selectivity index, ratio of GI50 for mouse RAW264.7 cells assessed as reduction in cell viability measured after 24 hrs by WST1 assay to IC50 for antitrypanosomal activity against bloodstream form of Trypanosoma cruzi Y trypomastigotes infected in African green monkey Vero cells
Assay type: toxicity
Conditions: read-out: Selectivity Index
Property name: selectivity ratio at 24 h

Recorded results for 3 molecules are shown here.
1) O=C(Cn1ccnc1[N+](=O)[O-])NCc1ccccc1; > 56
2) Cn1cnc([N+](=O)[O-])c1-n1cc(C2CC2)nn1; > 79
3) CCOC(=O)c1cn(-c2c([N+](=O)[O-])ncn2C)nn1; > 8.3

Now for a further molecule.
// query Please give the measured selectivity ratio at 24 h for this molecule: `CCCCCc1ccc(-c2cn(-c3c([N+](=O)[O-])ncn3C)nn2)cc1`
// result 2.77
